Test system: BT-549 breast
Assay: NCI tumour cell line growth inhibition, 48 h; in the data active means GI50 below about 0.43 µM; inactive means the rest
# valid calls are YES (active), NO (inactive); nothing else

- chemicalSmiles: "COc1cc2c3c(n(CCCN(C)CCO)c(=O)c2cc1OC)-c1cc2c(cc1C3=O)OCO2"
  testTarget: "BT-549 breast"
  classAssignment: "NO"

Task: Called result for `COc1ccc(-c2cc(-c3ccc(Nc4ccnc5cc(Cl)ccc45)cc3)nc(N3CCOCC3)n2)cc1`
Result: NO

Task: Called result for `CNCCn1c(=O)c2cc(OC)c(OC)cc2c2cnc3cc4c(cc3c21)OCO4`
Result: YES

====

Test system: EKVX NSCLC
Test: NCI tumour cell line growth inhibition, 48 h
measurementName: TGI

Below: 5 compounds and their reported TGI.
- compound: "COc1cccc(CC(=O)N2CCN(CCCc3ccccc3)CC2)c1"
  TGI: "> 100 µM"
- compound: "CCOC(=O)C1=C(N)Oc2c(sc3c(C)cccc23)C1c1ccc(F)cc1 (stereo not drawn)"
  TGI: "19.7 µM"
- compound: "Cc1c(Cl)cccc1NC(=O)c1cccc([N+](=O)[O-])c1O"
  TGI: "> 87.6 µM"
- compound: "COc1ccc(C2(CC(C)C)CCN(S(=O)(=O)c3ccc(C)cc3)C2)cc1OC (stereo not drawn)"
  TGI: "> 100 µM"
- compound: "CCCCC1Cc2cc(O)ccc2-c2nc3cc(O)ccc3n21 (stereo not drawn) (tested in a mixture with another compound)"
  TGI: "51.9 µM"

Here is the next item to consider.
Task: Which value of TGI has been reported for `Cn1c(=S)c2[nH]c(SCCCc3ccccc3)nc2n(C)c1=O` in the records?
Result: 79.3 µM

====

System: SF-268 CNS
Experiment: NCI tumour cell line growth inhibition, 48 h
Listed molecules paired with reported log10 of TGI
Answers are given as log10 of TGI in µM.

Below: 5 molecules and their reported log10 of TGI.
- molecule: "COc1ccc2c(c1)C(C)Cc1c(ncnc1-n1cnc3ccccc31)N2C (configuration not stated)"
  resultNumber: 1.26
- molecule: "Cc1c2c(C(N)=O)nccc2c(C)c2c1c1ccccc1n2Cc1ccccc1"
  resultNumber: 1.99
- molecule: "COc1ccc2c(c1)c(-c1nc(-c3c[nH]c4ncccc34)cs1)cn2CCCCN1CCCCC1"
  resultNumber: 0.51
- molecule: "CCOC(=O)C(NC(=O)c1ccccc1)(N1CCN(c2cc3c(cc2F)c(=O)c(C(=O)O)cn3C2CC2)CC1)C(F)(F)F (configuration not stated)"
  resultNumber: 1.62
- molecule: "N/C(=N\\S(=O)(=O)c1ccc(-c2ncccc2C(F)(F)F)s1)Nc1ccc(Cl)cc1"
  resultNumber: 1.50

Task: Which value of log10 of TGI has been reported for `NCCCN(CCCN)CCc1cn(C(=O)c2ccccc2)cn1` in the records?
Result: 1.38

Task: Which value of log10 of TGI has been reported for `O=C(Nc1ccc(Cl)cc1)Nc1nccs1` in the records?
Result: 1.80

Task: Which value of log10 of TGI has been reported for CCOC(=O)C1=C(N)Oc2c(sc3c(C)cccc23)C1c1ccc(F)cc1 (configuration not stated) in the records?
Result: 1.29

Task: Which value of log10 of TGI has been reported for `O=P1(Cc2ccccc2)N(Cc2ccccc2)[C@@H]2CCCC[C@H]2N1Cc1ccccc1` in the records?
Result: 1.39

Task: Which value of log10 of TGI has been reported for `CCOC(=O)c1c(OCC)[nH]c(=O)c(C(c2cccs2)c2c(O)c(C(=O)OCC)c(OCC)[nH]c2=O)c1O` in the records?
Result: 1.54

Task: Which value of log10 of TGI has been reported for `COc1ccc(-c2noc(N)c2-c2cc(OC)c3c(c2)OCO3)cc1` in the records?
Result: 2.00
